Target: human ether-à-go-go-related gene (hERG) potassium channel (human, UniProt Q12809);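 further: peak tail current of the secondary pulse compared with the same well before compound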
Sequence (Q12809 whole entry, looked up): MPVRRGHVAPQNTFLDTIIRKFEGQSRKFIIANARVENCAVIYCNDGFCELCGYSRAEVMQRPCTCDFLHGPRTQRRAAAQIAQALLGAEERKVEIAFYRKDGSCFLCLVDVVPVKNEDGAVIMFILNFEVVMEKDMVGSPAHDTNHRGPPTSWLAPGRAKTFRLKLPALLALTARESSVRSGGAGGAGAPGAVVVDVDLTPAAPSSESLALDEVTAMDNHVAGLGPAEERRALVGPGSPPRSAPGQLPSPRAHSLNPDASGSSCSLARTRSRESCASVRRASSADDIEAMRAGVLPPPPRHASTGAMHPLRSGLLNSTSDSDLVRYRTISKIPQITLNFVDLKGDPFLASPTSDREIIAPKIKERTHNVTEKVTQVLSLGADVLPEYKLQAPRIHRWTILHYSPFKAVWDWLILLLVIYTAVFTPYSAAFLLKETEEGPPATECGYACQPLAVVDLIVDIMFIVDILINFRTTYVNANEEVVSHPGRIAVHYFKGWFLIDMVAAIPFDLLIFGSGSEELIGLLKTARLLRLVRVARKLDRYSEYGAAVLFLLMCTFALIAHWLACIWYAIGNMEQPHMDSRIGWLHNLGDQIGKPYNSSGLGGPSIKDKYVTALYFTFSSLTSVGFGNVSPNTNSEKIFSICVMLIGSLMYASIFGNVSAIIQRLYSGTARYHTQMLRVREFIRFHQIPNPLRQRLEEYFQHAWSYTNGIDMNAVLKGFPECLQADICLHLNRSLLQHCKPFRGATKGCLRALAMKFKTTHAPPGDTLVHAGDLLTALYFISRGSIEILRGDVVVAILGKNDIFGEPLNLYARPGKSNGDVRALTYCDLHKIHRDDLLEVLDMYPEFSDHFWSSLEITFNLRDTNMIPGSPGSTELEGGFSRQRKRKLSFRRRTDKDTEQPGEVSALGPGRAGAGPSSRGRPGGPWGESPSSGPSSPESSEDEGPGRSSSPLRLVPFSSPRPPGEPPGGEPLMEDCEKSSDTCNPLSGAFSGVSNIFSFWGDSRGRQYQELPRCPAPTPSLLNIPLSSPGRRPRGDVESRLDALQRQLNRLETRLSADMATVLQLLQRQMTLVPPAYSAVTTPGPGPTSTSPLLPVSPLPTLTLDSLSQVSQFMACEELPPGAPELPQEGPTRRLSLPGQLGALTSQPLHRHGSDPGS
Experiment: primary screen, population patch clamp on CHO cells stably expressing hERG; higher = less effect of the substance
Procedure: Briefly, Chinese hamster ovary (CHO) cells stably expressing the hERG channel were dislodged from tissue culture flasks and dispensed into PPC plates. […] During the recording, background leak currents were estimated by a 100 ms step to -80 mV from an initial holding potential of -70 mV and subtracted from the subsequent current measurement. The campaign was conducted in two phases using slight differences in recording protocol. […]
Among all 310,000 compounds or so, about 14,000 (4.5%) showed an effect of 50% or more. The effect is printed as a negative number. The sample holds strong results, similar compounds and a random draw of the others, so the mix is not that of the screen.
measured_quantity: hERG current change (%, negative = inhibition) at 10uM (%)
Reply numerically in %, unit not repeated.

{"compound_string": "Cc1cccc(-c2nc3ccccc3c(=O)n2NC(=O)c2ccc([N+](=O)[O-])c(C)c2)c1", "u": "%", "reported": 14.5}
{"compound_string": "Cc1ccc(C)c(N2CCN(S(=O)(=O)c3csc(C(N)=O)c3)CC2)c1", "u": "%", "reported": -8.27}
{"compound_string": "O=C(Nn1c(-c2ccccc2)nc2ccccc2c1=O)c1ccc([N+](=O)[O-])cc1", "u": "%", "reported": -15.4}
{"compound_string": "Cc1cc(C(=O)Nn2c(-c3ccc(Br)cc3)nc3ccccc3c2=O)ccc1[N+](=O)[O-]", "u": "%", "reported": 8.86}
{"compound_string": "Cc1nnc(SCc2ccc(F)cc2)n1NC/C=C/c1ccccc1", "u": "%", "reported": -18.6}
{"compound_string": "Cc1cc(C)n(CC(=O)c2ccccc2)c(=O)c1C#N", "u": "%", "reported": 10.9}
{"compound_string": "Cc1cccc(-c2nc3ccccc3c(=O)n2NC(=O)/C=C/c2ccc([N+](=O)[O-])cc2)c1", "u": "%", "reported": -60.7}
{"compound_string": "COc1cc(-c2nnc(SCC3(c4ccc(Br)cc4)OCCO3)o2)cc(OC)c1OC", "u": "%", "reported": -9.92}

Field: next compound
Q: Write down the reported hERG current change (%, negative = inhibition) at 10uM of C/C(=C\c1cc(C(=O)O)c(C)o1)CO , test system: human ether-à-go-go-related gene (hERG) potassium channel (human, UniProt Q12809).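 Further: peak tail current of the secondary pulse compared with the same well before compound.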
Result: 12.9
